Where do these numbers come from? They come from paper PMC5540273.

%Inh listing for selected compounds.
- System: EPHB4
- Condition Notes: concentration: 1 μM, replicates: in singlicate; n = 1;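 also: KINOMEscan kinase panel screen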
Reported Endpoint: %Inh

{"columns": ["Compound Structure", "System Tested", "Recorded Value"],
 "data": [
  ["O=C(O)COc1ncnc2cc(-c3ccc4[nH]ncc4c3)sc12", "EPHB4", "7%"],
  ["Cn1ccc2ncnc(Oc3ccc(NC(=O)Nc4ccccc4)cc3)c21", "EPHB4", "6%"],
  ["O=C(Nc1n[nH]c2nc(-c3nccs3)c(Br)cc12)C1CC1", "EPHB4", "17%"],
  ["COc1ccc(Nc2nccc(NCCNC(=O)Nc3ccccc3F)n2)cc1", "EPHB4", "32%"],
  ["O=S(=O)(c1ccc(-c2ccnc3[nH]ccc23)cc1)N1CCCC1", "EPHB4", "4%"],
  ["CN1C(=O)C(Nc2ccc(Cl)c(C(=O)O)c2)=C(c2ccc(Cl)cc2)C1=O", "EPHB4", "0%"],
  ["Cc1cccc(-c2nc(Nc3cccc(C(N)=O)c3)c3ccccc3n2)n1", "EPHB4", "50%"],
  ["COc1cc2nccc(Nc3ccc(NC(=O)c4ccc(C)cc4)c(O)c3)c2cc1OC.Cl", "EPHB4", "10%"],
  ["Cc1cccc(-c2nc(C)cc(Nc3ccncc3)n2)n1", "EPHB4", "5%"],
  ["COc1cc2ncnc(Nc3ccc4nc(-c5ccccc5)[nH]c4c3)c2cc1OC.Cl", "EPHB4", "22%"],
  ["CC(C)(C)c1ccc(C(=O)Nc2cn3cc(Cl)ccc3n2)cc1", "EPHB4", "0%"],
  ["CC(=O)Nc1nc2cnc(Nc3cc(NC(=O)c4cccc(CCC#N)c4)ccc3C)nc2s1", "EPHB4", "19%"],
  ["Fc1cc(Cl)ccc1Nc1ccnc2cc(-c3ccc(CN4CCCCC4)o3)ccc12", "EPHB4", "12%"],
  ["Cc1ccccc1-n1cnc2c(N)ncnc21", "EPHB4", "0%"],
  ["COc1ccc2nc(-c3cccc(C)n3)nc(Nc3ccncc3)c2c1", "EPHB4", "15%"],
  ["Cc1csc(-c2nc(Nc3ccncc3)c3ccccc3n2)n1", "EPHB4", "0%"],
  ["Cc1c(O)cccc1Nc1ccnc2ccc(C(F)(F)F)cc12.Cl", "EPHB4", "20%"],
  ["CN(C)CCN(C)C(=O)c1cc(-c2ccncc2)c(-c2ccc(Cl)c(O)c2)o1.Cl.Cl", "EPHB4", "5%"],
  ["Fc1cc(Cl)ccc1Nc1ccnc2cc(I)ccc12", "EPHB4", "15%"]
]}

----------
- Tested on: RSK2(Kin.Dom.1-N-terminal)
- Construct: gene RPS6KA3
- Condition Notes: concentration: 1 μM, replicates: in singlicate; n = 1
Reported Endpoint: %Inh (%)

{"columns": ["Compound", "Units Text", "Recorded Value"],
 "data": [
  ["Cc1ccc(NC(=O)Nc2cccc(Cl)c2)cc1-c1ccc(C(=O)Nc2ccncc2)cc1 [GSK1398468]", "%", 0],
  ["COc1ccccc1-c1ccc2c(NC(=O)C3CC3)n[nH]c2n1 [SB-711239]", "%", 0],
  ["COc1ccc(Nc2nccc(-c3cccc(NC(=O)c4cc5cc(F)ccc5[nH]4)c3)n2)cc1 [GSK1229782]", "%", 21],
  ["Cc1ccc(NC(=O)Nc2cc(C(C)(C)C)nn2-c2ccccc2)cc1 [GSK1014915]", "%", 19],
  ["Cn1ccc2ncnc(Oc3ccc(NC(=O)Nc4ccccc4)cc3)c21", "%", 0],
  ["CN(C)CCN(C)C(=O)c1cc(-c2ccncc2)c(-c2ccc(Cl)c(O)c2)o1.Cl.Cl [SB-710397]", "%", 8],
  ["Cn1ccc2ncnc(Oc3cccc(C(=O)Nc4ccccc4)c3)c21", "%", 0],
  ["CS(=O)(=O)c1ccc(-c2c(-c3ncn[nH]3)sc(N3CCOCC3)c2C#N)cc1", "%", 4],
  ["Fc1cccc(COc2nnc(-c3ccc4c(c3)CCO4)o2)c1", "%", 0],
  ["O=C(Nc1n[nH]c2cc(-c3cccc(F)c3F)ccc12)C1CC1 [SB-733894]", "%", 0],
  ["CC(C)(C)c1ccc(C(=O)Nc2cn3cc(Cl)ccc3n2)cc1", "%", 26],
  ["Cc1cc(-c2ccc3c(c2)CC[C@@H](N[C@@H](C)c2ccccc2)C3)cnc1N.Cl [GW412617]", "%", 4],
  ["Cc1cc(N2Cc3ccccc3C2)nc(Nc2ccc(S(=O)(=O)N3CCOCC3)cc2)n1.Cl [GSK1669917]", "%", 0],
  ["Cc1nnc(-c2ccc3occ(-c4ccc(S(C)=O)cc4)c3c2)[nH]1 (centres unmarked)", "%", 13],
  ["COC(=O)c1c(-c2ccccc2)c2cc(C(=O)O)ccc2c(=O)n1Cc1ccccc1", "%", 0],
  ["COc1cccc(-c2cc(-c3c[nH]nc3-c3ccccn3)ccn2)c1 [GW680338]", "%", 0],
  ["Cn1cncc1-c1ccc2ncnc(Nc3ccc(OCc4ccccc4)cc3)c2c1 [GW320571]", "%", 18],
  ["COc1cc(Nc2nccc(N3CCC(NC(=O)Nc4cc(C)ccc4C)C3)n2)cc(OC)c1OC (centres unmarked) [GSK1379762]", "%", 0],
  ["Cl.NC(=O)c1cccc(Nc2nccc(Nc3ccc(Oc4cccc(Cl)c4)c(Cl)c3)n2)c1 [GW659008]", "%", 8],
  ["Cc1c(Cn2ccn3c(=O)cc(N4CCOCC4)nc23)cccc1C(F)(F)F [GSK2289044]", "%", 0],
  ["Cc1cccc(-c2nc(Nc3ccncc3)c3ccccc3n2)n1 [GW855857]", "%", 0],
  ["Cl.O=C(Nc1cccc(-c2nn3ncccc3c2-c2ccnc(Nc3cccnc3)n2)c1)c1c(F)cccc1F [GSK312879]", "%", 27],
  ["Clc1cc(Cl)cc(Nc2ccnc(Nc3cc(Cl)cc(Cl)c3)n2)c1 [GSK175726]", "%", 0],
  ["COc1ccccc1CNC(=O)c1cc(C(=O)c2ccccc2C)c[nH]1 [GSK364507]", "%", 4],
  ["Cc1cccc(-c2nc(Nc3cccc(C(N)=O)c3)c3ccccc3n2)n1 [GW876019]", "%", 1],
  ["CN1C(=O)C(Nc2ccc(Cl)c(C(=O)O)c2)=C(c2ccc(Cl)cc2)C1=O [SB-404290]", "%", 28]
]}

----------
- Tested on: NEK5
- Condition Notes: concentration: 1 μM, replicates: in singlicate; n = 1

{"columns": ["Molecule", "%Inh, %"],
 "data": [
  ["COc1ccc(Nc2nccc(NCCNC(=O)Nc3ccccc3F)n2)cc1", 3],
  ["CC(=O)Nc1nc2cnc(Nc3cc(NC(=O)c4cccc(CCC#N)c4)ccc3C)nc2s1", 0],
  ["Cc1nnc(-c2ccc3occ(-c4ccc(S(C)=O)cc4)c3c2)[nH]1 (stereo not drawn)", 1],
  ["C[C@@H]1CCCCN1c1cc(-c2ccc3c(N)n[nH]c3c2)nc(N)n1", 8],
  ["O=C(Nc1n[nH]c2nc(-c3nccs3)c(Br)cc12)C1CCCC1", 0],
  ["Cc1csc(-c2nc(Nc3ccncc3)c3ccccc3n2)n1", 0],
  ["Cc1ccc(-c2cc(-c3c[nH]nc3-c3ccccn3)ccn2)cc1", 11],
  ["COc1cccc(NC(=O)NC2CCN(c3ccnc(Nc4ccc(F)cc4)n3)C2)c1 (stereo not drawn)", 29],
  ["O=C(Nc1ccc2c(c1)OCO2)NC1CCN(c2ccnc(Nc3ccc(F)cc3)n2)C1 (stereo not drawn)", 25]
]}

----------
- System: DCAMKL2
- Construct: gene DCLK2
- Condition Notes: concentration: 1 μM, replicates: in singlicate; n = 1
Reported Endpoint: %Inh (%)

{"columns": ["Molecule", "Units Text", "Recorded Value"],
 "data": [
  ["Cn1ccc2ncnc(Oc3cccc(C(=O)Nc4ccccc4)c3)c21", "%", 0],
  ["O=C(Nc1n[nH]c2nc(-c3nccs3)c(Br)cc12)C1CC1 [SB-742251]", "%", 0],
  ["Fc1cc(Cl)ccc1Nc1ccnc2cc(-c3ccc(CN4CCCCC4)o3)ccc12 [GW560116]", "%", 14],
  ["Cc1cc(NCC(c2ccccc2)c2ccccc2)nc(NCc2ccc(C(F)(F)F)cc2)n1 [GW497681]", "%", 11],
  ["Cc1nnc(-c2ccc3occ(-c4ccc(S(C)=O)cc4)c3c2)[nH]1 (stereo not drawn)", "%", 0],
  ["Cc1cccc(-c2nc(C)cc(Nc3ccncc3)n2)n1 [GSK257997]", "%", 3],
  ["Cc1ccc(C(=O)Nc2ccc(Nc3ccnc4cc(-c5ccccn5)ccc34)cc2O)cc1.Cl [GW440146]", "%", 0],
  ["CC(C)(C)c1ccc(C(=O)Nc2cn3cc(Cl)ccc3n2)cc1", "%", 0],
  ["Fc1cccc(COc2nnc(-c3ccc4c(c3)CCO4)o2)c1", "%", 0]
]}
